Origin of measurements: patent US20220354844A1

# assayProtocol: Compound 1 single dose mouse PK study
# Format: in vivo, male CD-1 mice
# runConditions: male, CD-1, plasma, single iv dose 2 mg/kg
measure: MRT inf (h)
Expressed in h, but write only the number.

Please report MRT inf for the following compound: CC(=O)N1CCc2c(C(=O)N3CCC(c4ccc(F)c(F)c4C(F)(F)F)CC3)n[nH]c2C1 [Compound 1] 2.5

----------
# assayProtocol: Compound 1 single dose rat PK study
# Format: in vivo, male Sprague Dawley rats
# runConditions: male, Sprague Dawley, plasma, iv, 2 mg/kg, single iv dose 2 mg/kg, Mean of the 3 rats, read-out: Cmax
measure: Cmax (ng/mL)
Expressed in ng/mL, but write only the number.

Please report Cmax for the following compound: CC(=O)N1CCc2c(C(=O)N3CCC(c4ccc(F)c(F)c4C(F)(F)F)CC3)n[nH]c2C1 [Compound 1] 1870

----------
# assayProtocol: Compound 1 single dose mouse PK study
# Type: in vivo, male CD-1 mice
# runConditions: male, CD-1, plasma, single po dose 5 mg/kg
measure: half-life (h)
Expressed in h, but write only the number.

Please report half-life for the following compound: CC(=O)N1CCc2c(C(=O)N3CCC(c4ccc(F)c(F)c4C(F)(F)F)CC3)n[nH]c2C1 2.9

----------
# assayProtocol: Compound 1 single dose non-human primate PK study
# Format: in vivo, Cynomolgus Macaques
# runConditions: cynomolgus monkey, plasma, iv, 1 mg/kg, NHP, single iv dose 1 mg/kg, Mean of the 3 animals; read-out: Cmax
measure: Cmax (ng/mL)
Expressed in ng/mL, but write only the number.

Please report Cmax for the following compound: CC(=O)N1CCc2c(C(=O)N3CCC(c4ccc(F)c(F)c4C(F)(F)F)CC3)n[nH]c2C1 881

----------
# assayProtocol: Compound 1 single dose rat PK study
# Type: in vivo, male Sprague Dawley rats
# runConditions: male, Sprague Dawley, plasma, iv, 2 mg/kg, single iv dose 2 mg/kg, Mean of the 3 rats
measure: MRT inf (h)
Expressed in h, but write only the number.

Please report MRT inf for the following compound: CC(=O)N1CCc2c(C(=O)N3CCC(c4ccc(F)c(F)c4C(F)(F)F)CC3)n[nH]c2C1 3.3

----------
# assayProtocol: Compound 1 single dose rat PK study
# Assay type: in vivo, male Sprague Dawley rats
# runConditions: male, Sprague Dawley, plasma, po, 5 mg/kg, single po dose 5 mg/kg, individual rats, read-out: t1/2 (converted)
measure: half-life (h)
Expressed in h, but write only the number.

Please report half-life for the following compound: CC(=O)N1CCc2c(C(=O)N3CCC(c4ccc(F)c(F)c4C(F)(F)F)CC3)n[nH]c2C1 8.2

----------
# assayProtocol: Compound 1 single dose rat PK study
# Assay type: in vivo, male Sprague Dawley rats
# runConditions: male, Sprague Dawley, plasma, iv, 2 mg/kg, single iv dose 2 mg/kg, Mean of the 3 rats
measure: AUC(0-t) (ng·h/mL)
Expressed in ng·h/mL, but write only the number.

Please report AUC(0-t) for the following molecule: CC(=O)N1CCc2c(C(=O)N3CCC(c4ccc(F)c(F)c4C(F)(F)F)CC3)n[nH]c2C1 3950

----------
# assayProtocol: Compound 1 single dose non-human primate PK study
# Format: in vivo, Cynomolgus Macaques
# runConditions: cynomolgus monkey, plasma, po, 5 mg/kg, NHP, single po dose 5 mg/kg, Mean of the 3 animals
measure: AUC(0-t) (ng·h/mL)
Expressed in ng·h/mL, but write only the number.

Please report AUC(0-t) for the following compound: CC(=O)N1CCc2c(C(=O)N3CCC(c4ccc(F)c(F)c4C(F)(F)F)CC3)n[nH]c2C1 [Compound 1] 3990

----------
# assayProtocol: Compound 1 single dose non-human primate PK study
# Type: in vivo, Cynomolgus Macaques
# runConditions: cynomolgus monkey, plasma, po, 5 mg/kg, NHP, single po dose 5 mg/kg, individual animals
measure: AUC(0-inf) (ng·h/mL)
Expressed in ng·h/mL, but write only the number.

Please report AUC(0-inf) for the following compound: CC(=O)N1CCc2c(C(=O)N3CCC(c4ccc(F)c(F)c4C(F)(F)F)CC3)n[nH]c2C1 [Compound 1] 4720

----------
# assayProtocol: Compound 1 single dose mouse PK study
# Assay type: in vivo, male CD-1 mice
# runConditions: male, CD-1, plasma, single po dose 5 mg/kg
measure: Cmax (ng/mL)
Expressed in ng/mL, but write only the number.

Please report Cmax for the following molecule: CC(=O)N1CCc2c(C(=O)N3CCC(c4ccc(F)c(F)c4C(F)(F)F)CC3)n[nH]c2C1 [Compound 1] 278

----------
# assayProtocol: Compound 2 single dose rat PK study
# Type: in vivo, male Sprague Dawley rats
# runConditions: male, Sprague Dawley, plasma, po, 5 mg/kg, single po dose 5 mg/kg, individual rats
measure: AUC(0-inf)

Please report AUC(0-inf) for the following compound: CC(=O)N1Cc2[nH]nc(C(=O)N3CCC(c4ccc(F)c(F)c4C(F)(F)F)CC3)c2C1 5340 ng·h/mL

----------
# assayProtocol: Compound 1 single dose non-human primate PK study
# Type: in vivo, Cynomolgus Macaques
# runConditions: cynomolgus monkey, plasma, iv, 1 mg/kg, NHP, single iv dose 1 mg/kg, individual animals; read-out: Vss
measure: Vd
In your response, the unit should come after the numeric value.

Please report Vd for the following compound: CC(=O)N1CCc2c(C(=O)N3CCC(c4ccc(F)c(F)c4C(F)(F)F)CC3)n[nH]c2C1 [Compound 1] 1.52 L/kg

----------
# assayProtocol: Compound 1 single dose mouse PK study
# Type: in vivo, male CD-1 mice
# runConditions: male, CD-1, plasma, single iv dose 2 mg/kg, read-out: Vss
measure: Vd (L/kg)
Expressed in L/kg, but write only the number.

Please report Vd for the following compound: CC(=O)N1CCc2c(C(=O)N3CCC(c4ccc(F)c(F)c4C(F)(F)F)CC3)n[nH]c2C1 [Compound 1] 2.02

----------
# assayProtocol: Compound 2 single dose rat PK study
# Type: in vivo, male Sprague Dawley rats
# runConditions: male, Sprague Dawley, plasma, po, 5 mg/kg, single po dose 5 mg/kg, Mean of the 3 rats
measure: half-life (h)
Expressed in h, but write only the number.

Please report half-life for the following compound: CC(=O)N1Cc2[nH]nc(C(=O)N3CCC(c4ccc(F)c(F)c4C(F)(F)F)CC3)c2C1 [Compound 2] 8

----------
# assayProtocol: Compound 1 single dose non-human primate PK study
# Type: in vivo, Cynomolgus Macaques
# runConditions: cynomolgus monkey, plasma, iv, 1 mg/kg, NHP, single iv dose 1 mg/kg, Mean of the 3 animals; read-out: Vss
# Procedure: A pharmacokinetic study of Compound 1 following a single intravenous or oral dose administration to non-human primates (Cynomolgus Macaques) was conducted, the results of which are found in Table 2 and FIGS. 1-8.
measure: Vd (L/kg)
Expressed in L/kg, but write only the number.

Please report Vd for the following molecule: CC(=O)N1CCc2c(C(=O)N3CCC(c4ccc(F)c(F)c4C(F)(F)F)CC3)n[nH]c2C1 1.6

----------
# assayProtocol: Compound 2 single dose rat PK study
# Assay type: in vivo, male Sprague Dawley rats
# runConditions: male, Sprague Dawley, plasma, po, 5 mg/kg, single po dose 5 mg/kg, Mean of the 3 rats, read-out: Cmax
measure: Cmax (ng/mL)
Expressed in ng/mL, but write only the number.

Please report Cmax for the following molecule: CC(=O)N1Cc2[nH]nc(C(=O)N3CCC(c4ccc(F)c(F)c4C(F)(F)F)CC3)c2C1 [Compound 2] 1600

----------
# assayProtocol: Compound 1 single dose rat PK study
# Format: in vivo, male Sprague Dawley rats
# runConditions: male, Sprague Dawley, plasma, iv, 2 mg/kg, single iv dose 2 mg/kg, individual rats
measure: clearance

Please report clearance for the following compound: CC(=O)N1CCc2c(C(=O)N3CCC(c4ccc(F)c(F)c4C(F)(F)F)CC3)n[nH]c2C1 [Compound 1] 9.23 mL/min/kg

----------
# assayProtocol: Compound 1 single dose non-human primate PK study
# Format: in vivo, Cynomolgus Macaques
# runConditions: cynomolgus monkey, plasma, iv, 1 mg/kg, NHP, single iv dose 1 mg/kg, Mean of the 3 animals; read-out: MRT last
measure: MRT last
In your response, the unit should come after the numeric value.

Please report MRT last for the following compound: CC(=O)N1CCc2c(C(=O)N3CCC(c4ccc(F)c(F)c4C(F)(F)F)CC3)n[nH]c2C1 [Compound 1] 6.4 h

----------
# assayProtocol: Compound 1 single dose rat PK study
# Type: in vivo, male Sprague Dawley rats
# runConditions: male, Sprague Dawley, plasma, iv, 2 mg/kg, single iv dose 2 mg/kg, individual rats
measure: AUC(0-t) (ng·h/mL)
Expressed in ng·h/mL, but write only the number.

Please report AUC(0-t) for the following molecule: CC(=O)N1CCc2c(C(=O)N3CCC(c4ccc(F)c(F)c4C(F)(F)F)CC3)n[nH]c2C1 3600

----------
# assayProtocol: Compound 2 single dose rat PK study
# Type: in vivo, male Sprague Dawley rats
# runConditions: male, Sprague Dawley, plasma, po, 5 mg/kg, single po dose 5 mg/kg, Mean of the 3 rats
measure: MRT inf (h)
Expressed in h, but write only the number.

Please report MRT inf for the following compound: CC(=O)N1Cc2[nH]nc(C(=O)N3CCC(c4ccc(F)c(F)c4C(F)(F)F)CC3)c2C1 4.8
